molecular target: T1, Peptide F (monkey PAR-2), N-terminal biotinylated (Monkey (Macaca mulatta), N-terminal biotin via G4S linker); assay: SPR, peptide immobilized
T1 construct: also called Peptide F N-Term
T1 sequence (peptide, as listed by the source): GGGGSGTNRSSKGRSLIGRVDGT
Measure: pKd
The scale used: pKd is minus the common logarithm of the concentration in molar units.

Binder	pKd
H4H584P (antibody, human IgG4, V domains shown, also called H1H584P variable regions) VH: QVQLVESGGGVVQPGRSLRLSCVASGFTFSRYGMHWVRQAPGKGLEWVVVISYDGINKYYADSVKGRFTISRDNSKNTVYLQMNSLRAEDTAVYYCAKGDFWSGYFDYWGQGTLVTVSS VL: DIVMTQTPLSSPVTLGQPASISCRSSQSLVHSDGNTYLSWLHQRPGQPPRLLIYKISNRFSGVPDRFSGSGAGTDFTLQISRVEAEDVGIYYCMQATQFPTFGGGTKVEIK	9.25
H4H583P (antibody, human IgG4, V domains shown, also called H1H583P variable regions) VH: QVQLVESGGGVVQPGMSLRLSCTASGFTFRRYGMHWVRQAPGKGLEWVAVIWYDGSNKYYADSVKGRFTITRDNSKNTLYLQMNSLRAEDTAIYFCASEITIGDWFDPRGQGTLVTVSS VL: AIQMTQSPSSLSASVGDRVTITCRASQGIRNDLGWFQQKPGKVPKLLIYAASTLHSGVPSRFSGSGFGTDFTLTISSLQPEDFATYYCLQDFNYPLTFGGGTKVEIK	9.54

# next binder below
binder H4H581P (antibody, human IgG4, V domains shown, also called mAb H4H581P; H1H581P variable regions) VH: QVQLVESGGGVVQPGRSLRLSCVASGFTFSRYGIHWVRQAPGKGLEWVIVISYDGINKYYADSVKGRFTISRDNSKNTVYLQMNSLRAEDTAVYYCAKGDFWSGYFDYWGQGTLVTVSS VL: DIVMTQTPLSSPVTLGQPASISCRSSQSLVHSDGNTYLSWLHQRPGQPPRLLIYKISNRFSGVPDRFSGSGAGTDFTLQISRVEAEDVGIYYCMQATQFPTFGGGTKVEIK , pKd observed: 9.57
